Catalogue of sequences with associated Fluorescence intesity
test system: peptide-specific IgG in sera of cancer patients and healthy donors; test: Measurement of anti-peptide IgG in plasma by LUMINEX multiplexed flow cytometric assay; type: binding, human; details: serum of Healthy Donor #5, 1:100 dilution
assay_endpoint: Fluorescence intesity

> print(dat)
                           ordered.residues                         target.under.test  endpoint.result
1  EFHCNHPFL (SCCA 362-370 peptide) [SCCA-derived peptide, position 362-370]  peptide-specific IgG in sera of cancer patients and healthy donors                0
2  KFMFDLFQQF (SCCA 10-19 peptide) [SCCA-derived peptide, position 10-19]  peptide-specific IgG in sera of cancer patients and healthy donors                8
3  AYELKIANKL (SCCA 98-107 peptide) [SCCA-derived peptide, position 98-107]  peptide-specific IgG in sera of cancer patients and healthy donors                0
4  QFQKLLTEF (SCCA 84-92 peptide) [SCCA-derived peptide, position 84-92]  peptide-specific IgG in sera of cancer patients and healthy donors                0

---

tested on: peptide-specific IgG in sera of cancer patients and healthy donors; assay: Measurement of anti-peptide IgG in plasma by LUMINEX multiplexed flow cytometric assay; format: binding, human; conditions: serum of Uterine cervical Ca. patient #14, 1:100 dilution
Fluorescence intesity vs 20: at or above is Satisfied, below is Not satisfied.

> print(dat)
                           ordered.residues  classification
1  LFGEKTYLFL (SCCA 107-116 peptide) [SCCA-derived peptide, position 107-116]       Satisfied
2  EFHCNHPFL (SCCA 362-370 peptide) [SCCA-derived peptide, position 362-370]   Not satisfied
3  KFMFDLFQQF (SCCA 10-19 peptide) [SCCA-derived peptide, position 10-19]       Satisfied
4  AYELKIANKL (SCCA 98-107 peptide) [SCCA-derived peptide, position 98-107]       Satisfied
5  EYLDAIKKF (SCCA 118-126 peptide) [SCCA-derived peptide, position 118-126]   Not satisfied
6  RFKVEESYDL (SCCA 286-295 peptide) [SCCA-derived peptide, position 286-295]   Not satisfied

---

test system: peptide-specific IgG in sera of cancer patients and healthy donors; experiment: Measurement of anti-peptide IgG in plasma by LUMINEX multiplexed flow cytometric assay; type: binding, human; settings: serum of Uterine cervical Ca. patient #10, 1:100 dilution
assay_endpoint: Fluorescence intesity

> print(dat)
                           ordered.residues         assay.endpoint  endpoint.result
1  LFGEKTYLFL (SCCA 107-116 peptide) [SCCA-derived peptide, position 107-116]  Fluorescence intesity               14
2  EYLDAIKKF (SCCA 118-126 peptide) [SCCA-derived peptide, position 118-126]  Fluorescence intesity               13
3  RFKVEESYDL (SCCA 286-295 peptide) [SCCA-derived peptide, position 286-295]  Fluorescence intesity               14
4  EFHCNHPFL (SCCA 362-370 peptide) [SCCA-derived peptide, position 362-370]  Fluorescence intesity               15
5  QFQKLLTEF (SCCA 84-92 peptide) [SCCA-derived peptide, position 84-92]  Fluorescence intesity               15
6  KFMFDLFQQF (SCCA 10-19 peptide) [SCCA-derived peptide, position 10-19]  Fluorescence intesity               16
7  AYELKIANKL (SCCA 98-107 peptide) [SCCA-derived peptide, position 98-107]  Fluorescence intesity               14

---

system: peptide-specific IgG in sera of cancer patients and healthy donors; assay: Measurement of anti-peptide IgG in plasma by LUMINEX multiplexed flow cytometric assay; type: binding, human; details: serum of Pancreas Ca. patient #53, 1:100 dilution
assay_endpoint: Fluorescence intesity

> print(dat)
                           ordered.residues  endpoint.result
1  EYLDAIKKF (SCCA 118-126 peptide) [SCCA-derived peptide, position 118-126]                0
2  KFMFDLFQQF (SCCA 10-19 peptide) [SCCA-derived peptide, position 10-19]                0
3  QFQKLLTEF (SCCA 84-92 peptide) [SCCA-derived peptide, position 84-92]                0
4  LFGEKTYLFL (SCCA 107-116 peptide) [SCCA-derived peptide, position 107-116]               43
5  RFKVEESYDL (SCCA 286-295 peptide) [SCCA-derived peptide, position 286-295]               41
6  EFHCNHPFL (SCCA 362-370 peptide) [SCCA-derived peptide, position 362-370]                0
7  AYELKIANKL (SCCA 98-107 peptide) [SCCA-derived peptide, position 98-107]                0

---

test system: peptide-specific IgG in sera of cancer patients and healthy donors; assay: Measurement of anti-peptide IgG in plasma by LUMINEX multiplexed flow cytometric assay; assay type: binding, human; details: serum of Uterine cervical Ca. patient #6, 1:100 dilution
assay_endpoint: Fluorescence intesity

> print(dat)
                           ordered.residues         assay.endpoint  endpoint.result
1  AYELKIANKL (SCCA 98-107 peptide) [SCCA-derived peptide, position 98-107]  Fluorescence intesity             1226
2  LFGEKTYLFL (SCCA 107-116 peptide) [SCCA-derived peptide, position 107-116]  Fluorescence intesity              925
3  EYLDAIKKF (SCCA 118-126 peptide) [SCCA-derived peptide, position 118-126]  Fluorescence intesity              507
4  RFKVEESYDL (SCCA 286-295 peptide) [SCCA-derived peptide, position 286-295]  Fluorescence intesity              869
5  QFQKLLTEF (SCCA 84-92 peptide) [SCCA-derived peptide, position 84-92]  Fluorescence intesity              922
6  KFMFDLFQQF (SCCA 10-19 peptide) [SCCA-derived peptide, position 10-19]  Fluorescence intesity              786
7  EFHCNHPFL (SCCA 362-370 peptide) [SCCA-derived peptide, position 362-370]  Fluorescence intesity              611

---

Catalogue of sequences with associated Total: cancer patients with significant peptide-reactive IgG / patients tested
test system: peptide-specific IgG in sera of cancer patients and healthy donors; test: Measurement of anti-peptide IgG in plasma by LUMINEX multiplexed flow cytometric assay; assay type: binding, human; details: 71 cancer patients; significant when fluorescence intensity exceeded 100 at 1/100 dilution
assay_endpoint: Total: cancer patients with significant peptide-reactive IgG / patients tested

> print(dat)
                           ordered.residues  endpoint.result
1  EFHCNHPFL (SCCA 362-370 peptide) [SCCA-derived peptide, position 362-370]            10/71
2  AYELKIANKL (SCCA 98-107 peptide) [SCCA-derived peptide, position 98-107]            12/71
3  EYLDAIKKF (SCCA 118-126 peptide) [SCCA-derived peptide, position 118-126]             7/71

---

test system: peptide-specific IgG in sera of cancer patients and healthy donors; assay: Measurement of anti-peptide IgG in plasma by LUMINEX multiplexed flow cytometric assay; format: binding, human; conditions: serum of Uterine cervical Ca. patient #24, 1:100 dilution
assay_endpoint: Fluorescence intesity

> print(dat)
                           ordered.residues  endpoint.result
1  LFGEKTYLFL (SCCA 107-116 peptide) [SCCA-derived peptide, position 107-116]             1457
2  AYELKIANKL (SCCA 98-107 peptide) [SCCA-derived peptide, position 98-107]             2650
3  EFHCNHPFL (SCCA 362-370 peptide) [SCCA-derived peptide, position 362-370]             1234
4  EYLDAIKKF (SCCA 118-126 peptide) [SCCA-derived peptide, position 118-126]             1169
5  QFQKLLTEF (SCCA 84-92 peptide) [SCCA-derived peptide, position 84-92]             1819
6  RFKVEESYDL (SCCA 286-295 peptide) [SCCA-derived peptide, position 286-295]             1779
7  KFMFDLFQQF (SCCA 10-19 peptide) [SCCA-derived peptide, position 10-19]             2277

Taken from patent US8030443B2.
